TARGET_ENTITY: chimeric Caspase-9 polypeptide
Sequence (as listed by the source, change not shown): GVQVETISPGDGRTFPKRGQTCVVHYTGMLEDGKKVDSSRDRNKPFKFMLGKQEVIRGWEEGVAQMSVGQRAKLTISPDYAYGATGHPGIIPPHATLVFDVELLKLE
ASSAY_REMARKS: Caspase mutant classes and basal activity (Table 3)
Format: cell-based, human
CONDITION_CONTEXT: class heading of Table 3; ligand IC50
QUANTITY_NAME: IC50

molecule="F319W (protein) GFGDVGALESLRGNADLAYILSMEPCGHCLIINNVNFCRESGLRTRTGSNIDCEKLRRRFSSLHFMVEVKGDLTAKKMVLALLELAQQDHGALDCCVVVILSHGCQASHLQFPGAVYGTDGCPVSVEKIVNIFNGTSCPSLGGKPKLFFIQACGGEQKDHGFEVASTSPEDESPGSNPEPDATPWQEGLRTFDQLDAISSLPTPSDIFVSYSTFPGFVSWRDPKSGSWYVETLDDIFEQWAHSEDLQSLLLRVANAVSVKGIYKQMPGCFNFLRKKLFFKTS" result="much higher"
molecule="Y153A (protein) GFGDVGALESLRGNADLAAILSMEPCGHCLIINNVNFCRESGLRTRTGSNIDCEKLRRRFSSLHFMVEVKGDLTAKKMVLALLELAQQDHGALDCCVVVILSHGCQASHLQFPGAVYGTDGCPVSVEKIVNIFNGTSCPSLGGKPKLFFIQACGGEQKDHGFEVASTSPEDESPGSNPEPDATPFQEGLRTFDQLDAISSLPTPSDIFVSYSTFPGFVSWRDPKSGSWYVETLDDIFEQWAHSEDLQSLLLRVANAVSVKGIYKQMPGCFNFLRKKLFFKTS" result="much higher"
molecule="D315A (protein) GFGDVGALESLRGNADLAYILSMEPCGHCLIINNVNFCRESGLRTRTGSNIDCEKLRRRFSSLHFMVEVKGDLTAKKMVLALLELAQQDHGALDCCVVVILSHGCQASHLQFPGAVYGTDGCPVSVEKIVNIFNGTSCPSLGGKPKLFFIQACGGEQKDHGFEVASTSPEDESPGSNPEPAATPFQEGLRTFDQLDAISSLPTPSDIFVSYSTFPGFVSWRDPKSGSWYVETLDDIFEQWAHSEDLQSLLLRVANAVSVKGIYKQMPGCFNFLRKKLFFKTS" result="much higher"
